Molecular target: 3',5'-cyclic-AMP phosphodiesterase 4D (Homo sapiens, UniProt Q08499)
Sequence (Q08499 whole entry): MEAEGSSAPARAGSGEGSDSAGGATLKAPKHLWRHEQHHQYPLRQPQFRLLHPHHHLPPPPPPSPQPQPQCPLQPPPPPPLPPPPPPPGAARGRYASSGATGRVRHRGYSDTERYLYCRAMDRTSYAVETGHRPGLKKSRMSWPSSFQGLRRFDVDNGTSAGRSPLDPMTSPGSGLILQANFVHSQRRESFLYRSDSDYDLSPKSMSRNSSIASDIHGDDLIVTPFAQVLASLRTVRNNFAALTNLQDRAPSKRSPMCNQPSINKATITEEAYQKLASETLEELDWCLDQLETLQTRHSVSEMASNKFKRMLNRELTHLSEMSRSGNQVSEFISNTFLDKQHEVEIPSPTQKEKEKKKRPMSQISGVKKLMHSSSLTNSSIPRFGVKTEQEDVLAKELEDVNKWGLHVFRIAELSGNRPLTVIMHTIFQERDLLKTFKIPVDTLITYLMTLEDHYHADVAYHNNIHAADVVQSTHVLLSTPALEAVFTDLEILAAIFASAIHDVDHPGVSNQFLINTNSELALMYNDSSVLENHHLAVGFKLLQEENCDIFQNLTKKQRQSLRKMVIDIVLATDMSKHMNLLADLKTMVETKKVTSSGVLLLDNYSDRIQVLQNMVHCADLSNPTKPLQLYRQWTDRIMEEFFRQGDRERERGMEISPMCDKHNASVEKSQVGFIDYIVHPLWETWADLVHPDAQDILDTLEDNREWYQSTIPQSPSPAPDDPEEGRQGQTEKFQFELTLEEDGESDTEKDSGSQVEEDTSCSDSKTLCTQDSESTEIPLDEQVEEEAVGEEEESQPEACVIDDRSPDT
Experiment: Inhibition of human recombinant PDE4D3 using FAM-cAMP as substrate measured after 1 hr by IMAP TR-FRET assay relative to control
readout-label: Emax (%)

| molecule-smiles | result |
| --- | --- |
| COc1ccc(CCN(C)S(=O)(=O)c2ccc(-c3ccccc3)cc2)cc1OC | 60 |
| COc1ccc(/C=N/N(C)S(=O)(=O)c2cc3c(cc2C)OCO3)cc1OC | 93 |
| COc1ccc([C@]2(C#N)CC[C@@H](C(=O)O)CC2)cc1OC1CCCC1 | 99 |
| COc1ccc(CCN(C)S(=O)(=O)c2ccc3ccccc3c2)cc1OC | 63 |

----------
Experiment: Chemical stability of the compound in KCl/HCl buffer at pH 2.0 measured upto 120 mins by HPLC-DAD analysis
Conditions: pH 2, 2 h
readout-label: Stabilty

| molecule-smiles | readout-label | result |
| --- | --- | --- |
| COc1ccc(CCN(C)S(=O)(=O)c2ccc(OC)c(OC)c2)cc1OC | Stabilty | Stable |
| COc1ccc(/C=N/NS(=O)(=O)c2ccc(C(F)(F)F)cc2)cc1OC | Stabilty | Unstable |
| COc1ccc(/C=N/NS(=O)(=O)c2cc3c(cc2C)OCO3)cc1OC | Stabilty | Unstable |
| COc1ccc(S(=O)(=O)N(C)CCc2ccc(OC)c(OC)c2)cc1 | Stabilty | Stable |
| COc1ccc(S(=O)(=O)NCCc2ccc(OC)c(OC)c2)cc1 | Stabilty | Stable |
| COc1ccc(/C=N/N(C)S(=O)(=O)c2ccccc2C)cc1OC | Stabilty | Unstable |
| COc1ccc(CCNS(=O)(=O)c2ccc3ccccc3c2)cc1OC | Stabilty | Stable |
| COc1ccc(/C=N/N(C)S(=O)(=O)c2cc3c(cc2C)OCO3)cc1OC | Stabilty | Unstable |
| COc1ccc(S(=O)(=O)N/N=C/c2ccc(OC)c(OC)c2)cc1 | Stabilty | Unstable |
| COc1ccc(CCN(C)S(=O)(=O)c2ccc(-c3ccccc3)cc2)cc1OC | Stabilty | Stable |
| COc1ccc(CCNS(=O)(=O)c2ccc([N+](=O)[O-])cc2)cc1OC | Stabilty | Stable |

----------
Assay: Inhibition of human recombinant PDE4A1A using FAM-cAMP as substrate measured after 1 hr by IMAP TR-FRET assay
pIC50: −log10 of the molar value.

| molecule-smiles | pIC50 |
| --- | --- |
| COc1ccc(CCNS(=O)(=O)c2cc3c(cc2C)OCO3)cc1OC | 6.15 |
| COc1ccc(/C=N/N(C)S(=O)(=O)c2cc3c(cc2C)OCO3)cc1OC | 6.30 |
| COc1ccc([C@]2(C#N)CC[C@@H](C(=O)O)CC2)cc1OC1CCCC1 | 6.70 |
| COc1ccc(CCN(C)S(=O)(=O)c2ccc3ccccc3c2)cc1OC | 5.52 |

----------
Conditions: pampa, 8 h
Catalogue of Drug absorption readings, one per entry.
readout-label: Drug absorption (%)

| compound | readout-label | result |
| --- | --- | --- |
| COc1ccc([C@]2(C#N)CC[C@@H](C(=O)O)CC2)cc1OC1CCCC1 | Drug absorption | 93.74 |
| COc1ccc(/C=N/N(C)S(=O)(=O)c2cc3c(cc2C)OCO3)cc1OC | Drug absorption | 99.3 |
| CC(=O)Oc1ccccc1C(=O)O | Drug absorption | 47.36 |
| O=C(Nc1c(Cl)cncc1Cl)c1ccc(OC(F)F)c(OCC2CC2)c1 | Drug absorption | 86.58 |
| CNC(=C[N+](=O)[O-])NCCSCc1ccc(CN(C)C)o1 | Drug absorption | 13.48 |
| O=c1ccc2ccccc2o1 | Drug absorption | 99.98 |
| CC(=O)N1CCN(c2ccc(OCC3COC(Cn4ccnc4)(c4ccc(Cl)cc4Cl)O3)cc2)CC1 (stereo not drawn) | Drug absorption | 84.68 |
| O=C(O)Cc1ccccc1Nc1c(Cl)cccc1Cl | Drug absorption | 99.28 |

----------
Assay: Chemical stability of the compound in KCl/HCl buffer at pH 2.0 measured upto 120 mins by HPLC-DAD analysis
Details: pH 2, 2 h

| molecule-smiles | Stabilty |
| --- | --- |
| COc1ccc(/C=N/NS(=O)(=O)c2ccccc2C)cc1OC | Unstable |
| COc1ccc(CCNS(=O)(=O)c2ccc(-c3ccccc3)cc2)cc1OC | Stable |
| COc1ccc(CCN(C)S(=O)(=O)c2ccccc2C)cc1OC | Stable |
| COc1ccc(CCNS(=O)(=O)c2cc3c(cc2C)OCO3)cc1OC | Stable |
| COc1ccc(/C=N/NS(=O)(=O)c2ccccc2)cc1OC | Unstable |
| COc1ccc(CCN(C)S(=O)(=O)c2ccc3ccccc3c2)cc1OC | Stable |

----------
System: Trachea
Assay: […] activity in OVA-sensitized guinea pig-derived trachea assessed as decrease in CCh-induced tracheal tonic contraction in presence of functional epithelium treated with compound after contraction stabilised
Assay type: tissue-based
Conditions: Cavia porcellus
pEC50: −log10 of the molar value.

| molecule | pEC50 |
| --- | --- |
| COc1ccc(C2CNC(=O)C2)cc1OC1CCCC1 (stereo not drawn) [ROLIPRAM] | 7.50 |
| COc1ccc(/C=N/N(C)S(=O)(=O)c2cc3c(cc2C)OCO3)cc1OC | 5.19 |
| COc1ccc(CCNS(=O)(=O)c2cc3c(cc2C)OCO3)cc1OC | 4.61 |

----------
Target: UniProtKB Q08499
Experiment: Inhibition of human recombinant PDE4D3 using FAM-cAMP as substrate measured after 1 hr by IMAP TR-FRET assay
pIC50: −log10 of the molar value.

| molecule-smiles | pIC50 |
| --- | --- |
| COc1ccc(/C=N/N(C)S(=O)(=O)c2cc3c(cc2C)OCO3)cc1OC | 6.15 |
| COc1ccc(CCN(C)S(=O)(=O)c2ccc(-c3ccccc3)cc2)cc1OC | 4.68 |
| COc1ccc(CCN(C)S(=O)(=O)c2ccc3ccccc3c2)cc1OC | 4.45 |

----------
Catalogue of inhibition readings, one per entry.
Molecular target: 3',5'-cyclic-AMP phosphodiesterase 4D (Homo sapiens, UniProt Q08499)
Assay: Inhibition of human recombinant PDE4D3 using FAM-cAMP as substrate at 10 uM measured after 1 hr by IMAP TR-FRET assay

| compound | comparison-operator | inhibition [%] |
| --- | --- | --- |
| COc1ccc([C@]2(C#N)CC[C@@H](C(=O)O)CC2)cc1OC1CCCC1 [CILOMILAST] | = | 98.8 |
| COc1ccc(S(=O)(=O)N(C)CCc2ccc(OC)c(OC)c2)cc1 | = | 35.6 |
| COc1ccc(S(=O)(=O)NCCc2ccc(OC)c(OC)c2)cc1 | = | 23.8 |
| COc1ccc(CCNS(=O)(=O)c2ccc(-c3ccccc3)cc2)cc1OC | = | 10.8 |
| COc1ccc(CCNS(=O)(=O)c2ccc(OC)c(OC)c2)cc1OC | = | 13.6 |
| COc1ccc(CCN(C)S(=O)(=O)c2ccc(-c3ccccc3)cc2)cc1OC | = | 56.3 |
| COc1ccc(S(=O)(=O)N(C)/N=C/c2ccc(OC)c(OC)c2)cc1 | = | 12.8 |
| COc1ccc(CCN(C)S(=O)(=O)c2ccc(OC)c(OC)c2)cc1OC | = | 31.1 |
| COc1ccc(CCN(C)S(=O)(=O)c2ccc3ccccc3c2)cc1OC | = | 50.1 |
| COc1ccc(/C=N/NS(=O)(=O)c2ccc(C(F)(F)F)cc2)cc1OC | = | 19.7 |
| COc1ccc(/C=N/NS(=O)(=O)c2ccccc2C)cc1OC | = | 15.9 |
| COc1ccc(CCNS(=O)(=O)c2ccccc2C)cc1OC | < | 5 |
| COc1ccc(/C=N/N(C)S(=O)(=O)c2ccccc2C)cc1OC | = | 26.1 |
| COc1ccc(CCNS(=O)(=O)c2ccc3ccccc3c2)cc1OC | = | 9.1 |
| COc1ccc(CCNS(=O)(=O)c2cc3c(cc2C)OCO3)cc1OC | < | 5 |
| COc1ccc(/C=N/NS(=O)(=O)c2cc3c(cc2C)OCO3)cc1OC | = | 8.8 |
| COc1ccc(/C=N/NS(=O)(=O)c2ccccc2)cc1OC | < | 5 |
| COc1ccc(CCNS(=O)(=O)c2ccc([N+](=O)[O-])cc2)cc1OC | < | 5 |
| COc1ccc(S(=O)(=O)N/N=C/c2ccc(OC)c(OC)c2)cc1 | = | 20.2 |
| COc1ccc(/C=N/N(C)S(=O)(=O)c2cc3c(cc2C)OCO3)cc1OC | = | 90.7 |
| COc1ccc(CCN(C)S(=O)(=O)c2ccc([N+](=O)[O-])cc2)cc1OC | < | 5 |
| COc1ccc(CCN(C)S(=O)(=O)c2ccccc2C)cc1OC | = | 27.6 |
